# Study System: A3 (h) (Homo sapiens)
# Sequence (P0DMS8 whole entry): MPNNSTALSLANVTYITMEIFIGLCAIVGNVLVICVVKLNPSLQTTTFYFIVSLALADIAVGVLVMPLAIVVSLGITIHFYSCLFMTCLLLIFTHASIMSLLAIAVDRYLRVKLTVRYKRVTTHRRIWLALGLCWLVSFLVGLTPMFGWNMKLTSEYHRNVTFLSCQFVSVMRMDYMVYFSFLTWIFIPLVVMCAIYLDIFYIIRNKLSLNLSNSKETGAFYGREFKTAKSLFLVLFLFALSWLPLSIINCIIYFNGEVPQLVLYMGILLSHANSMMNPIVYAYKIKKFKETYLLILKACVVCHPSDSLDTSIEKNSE
# Assay Overview: A3 (h) (agonist radioligand)
# Measurement Context: read-out: Inhibition A3 (h) (agonist radioligand)
Measure Name: inhibition at 10 µM (%)
Report the figure in % without appending any unit label.

>>> print(df.to_string())
                            chemical_smiles  recorded_measurement
0  O=C(N1CC2(CC(CC3=C4C=CC=[N+]4[B-](F)(F)n4cccc43)C2)C1)N1CC2(CC(n3cnc(C4CC4)n3)C2)C1                  17.7
1  O=C(OC(C(F)(F)F)C(F)(F)F)N1CC2(CC(CC3=C4C=CC=[N+]4[B-](F)(F)n4cccc43)C2)C1                    45
2  O=C(OC(C(F)(F)F)C(F)(F)F)N1CC2(CC(CC3=C4C=CC(c5ccc[nH]5)=[N+]4[B-](F)(F)n4cccc43)C2)C1                  34.8

Shifting focus to the compound that follows.
So what does the record say about inhibition at 10 µM for O=C(O[C@H](CO)C(F)(F)F)N1CC2(CC(CC3=C4C=CC=[N+]4[B-](F)(F)n4cccc43)C2)C1 ?
-1.6

----------
# Study System: NanoLuc luciferase MAGL fusion protein
# Sequence (Q99685 whole entry, the tested form may be a part): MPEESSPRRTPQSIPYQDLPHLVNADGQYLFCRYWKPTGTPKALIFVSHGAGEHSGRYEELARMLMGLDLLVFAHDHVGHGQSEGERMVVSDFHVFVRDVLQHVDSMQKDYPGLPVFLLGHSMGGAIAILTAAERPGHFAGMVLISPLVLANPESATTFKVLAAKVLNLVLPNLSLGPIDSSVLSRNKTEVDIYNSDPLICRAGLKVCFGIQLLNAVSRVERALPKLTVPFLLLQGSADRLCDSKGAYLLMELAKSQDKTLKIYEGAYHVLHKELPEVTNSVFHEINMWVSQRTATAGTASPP
# Assay Overview: Cellular MAGL NanoBRET target engagement assay in live HEK293 cells
# Measurement Context: SI Table 1, live HEK293 cells; read-out: NanoBRET IC50 ± SEM, HEK293
Measure Name: IC50 (nM)
Your answer is read as nM, so omit the unit and give the number.

Recorded results for 2 molecules are shown here.
In [3]: df
Out[3]:
                            chemical_smiles  measure_name  recorded_measurement
0  O=C1CO[C@H]2CCN(C(=O)N3CC4(CCC(OC5=C6C=CC=[N+]6[B-](F)(F)n6cccc65)CC4)C3)C[C@H]2N1          IC50                  4630
1  O=C1CO[C@H]2CCN(C(=O)N3CC4(CCC(CC5=C6C=CC=[N+]6[B-](F)(F)n6cccc65)CC4)C3)C[C@H]2N1          IC50                   564

Okay, next one:
Field: IC50 (NanoLuc luciferase MAGL fusion protein). Entry: O=C1COc2ccc(C(=O)N3CC4(CC(CC5=C6C=CC=[N+]6[B-](F)(F)n6cccc65)C4)C3)cc2N1
299

----------
Listed compounds paired with reported inhibition at 10 µM
# Study System: D2S (h) (Homo sapiens)
# Sequence (P14416 1-414 isoform P14416-2): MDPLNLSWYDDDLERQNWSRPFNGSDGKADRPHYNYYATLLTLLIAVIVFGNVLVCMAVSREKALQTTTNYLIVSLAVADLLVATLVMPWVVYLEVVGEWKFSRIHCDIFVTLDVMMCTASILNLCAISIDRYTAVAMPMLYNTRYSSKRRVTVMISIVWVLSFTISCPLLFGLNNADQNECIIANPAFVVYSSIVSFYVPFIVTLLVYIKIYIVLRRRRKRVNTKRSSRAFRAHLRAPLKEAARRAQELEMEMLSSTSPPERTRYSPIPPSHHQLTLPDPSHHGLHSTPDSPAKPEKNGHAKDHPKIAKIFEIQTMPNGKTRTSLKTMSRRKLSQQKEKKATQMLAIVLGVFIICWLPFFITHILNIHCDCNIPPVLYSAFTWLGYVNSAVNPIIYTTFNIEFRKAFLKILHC
# Assay Overview: D2S (h) (agonist radioligand)
# Measurement Context: read-out: Inhibition D2S (h) (agonist radioligand)
The reply should be a number in %, with the unit left off.

# example entries with known answers
>>> df
                                   compound            study_system         measure_name  recorded_measurement
0  O=C(O[C@H](CO)C(F)(F)F)N1CC2(CC(CC3=C4C=CC=[N+]4[B-](F)(F)n4cccc43)C2)C1 [Compound 1]  D2S (h) (Homo sapiens)  inhibition at 10 µM                   5.9
1  O=C(N1CC2(CC(CC3=C4C=CC=[N+]4[B-](F)(F)n4cccc43)C2)C1)N1CC2(CC(n3cnc(C4CC4)n3)C2)C1 [Compound 5]  D2S (h) (Homo sapiens)  inhibition at 10 µM                  12.6
2  O=C(OC(C(F)(F)F)C(F)(F)F)N1CC2(CC(CC3=C4C=CC(c5ccc[nH]5)=[N+]4[B-](F)(F)n4cccc43)C2)C1 [Compound 2a]  D2S (h) (Homo sapiens)  inhibition at 10 µM                  -2.6
3  O=C1CO[C@H]2CCN(C(=O)N3CC4(CC(CC5=C6C=CC(c7ccc[nH]7)=[N+]6[B-](F)(F)n6cccc65)C4)C3)C[C@H]2N1 [Compound 4a]  D2S (h) (Homo sapiens)  inhibition at 10 µM                   3.3

# next compound below
Given the compound O=C(OC(C(F)(F)F)C(F)(F)F)N1CC2(CC(CC3=C4C=CC=[N+]4[B-](F)(F)n4cccc43)C2)C1 [Compound 2] , what is its reported inhibition at 10 µM?
-4.1
